Overview of recorded IC50 for various compounds
# tested on: Progesterone receptor (Homo sapiens, UniProt P06401)
# Sequence (P06401 whole entry): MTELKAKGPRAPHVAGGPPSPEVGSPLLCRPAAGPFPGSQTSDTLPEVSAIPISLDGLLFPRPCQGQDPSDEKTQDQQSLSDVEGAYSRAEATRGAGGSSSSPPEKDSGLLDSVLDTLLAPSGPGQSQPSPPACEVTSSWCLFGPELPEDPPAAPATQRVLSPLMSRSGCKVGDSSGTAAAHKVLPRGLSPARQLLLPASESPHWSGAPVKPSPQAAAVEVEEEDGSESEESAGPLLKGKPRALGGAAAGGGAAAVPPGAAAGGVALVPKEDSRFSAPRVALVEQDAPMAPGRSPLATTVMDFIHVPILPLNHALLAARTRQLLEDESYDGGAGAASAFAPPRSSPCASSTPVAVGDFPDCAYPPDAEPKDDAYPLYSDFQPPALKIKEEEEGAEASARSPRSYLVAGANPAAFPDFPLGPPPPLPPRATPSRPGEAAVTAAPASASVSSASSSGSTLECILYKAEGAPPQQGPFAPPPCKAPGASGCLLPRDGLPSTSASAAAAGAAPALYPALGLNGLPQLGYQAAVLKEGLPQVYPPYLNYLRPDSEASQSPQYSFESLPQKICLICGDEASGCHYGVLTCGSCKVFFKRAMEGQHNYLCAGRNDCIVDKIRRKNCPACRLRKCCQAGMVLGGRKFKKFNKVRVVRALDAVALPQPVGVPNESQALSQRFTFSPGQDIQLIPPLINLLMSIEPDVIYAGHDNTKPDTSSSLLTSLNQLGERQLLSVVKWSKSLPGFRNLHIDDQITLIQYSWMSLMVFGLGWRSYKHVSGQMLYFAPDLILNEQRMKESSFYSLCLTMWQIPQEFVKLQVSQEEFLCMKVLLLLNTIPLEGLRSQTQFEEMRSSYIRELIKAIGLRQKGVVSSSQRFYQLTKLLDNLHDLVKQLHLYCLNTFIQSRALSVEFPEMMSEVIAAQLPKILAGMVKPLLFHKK
# test protocol: Displacement of [3H]-Progesterone from human PR expressed in 293 cells after 16 hrs by scintillation counting
Entry rule: numbers only, all in nM.

Consider the worked cases shown below.
| compound | measure unit | IC50 |
| --- | --- | --- |
| CC1NC(=O)C(c2ccc(F)cc2)=C1c1ccc2c(c1)NC(=O)CO2 (stereo not given) | nM | 5600 |
| CC1NC(=O)C(c2ccc(F)cc2)=C1c1cc(Cl)c2c(c1)NC(=O)CO2 (stereo not given) | nM | 1600 |
| CC1(F)OC(=O)C(c2ccc(F)cc2)=C1c1ccc2c(c1)NC(=O)CO2 (stereo not given) | nM | 5000 |
| CC1C(c2ccc3c(c2)NC(=O)CO3)=C(c2ccc(F)cc2)C(=O)N1C1CC1 (stereo not given) | nM | 400 |

# next compound below
The recorded IC50 for CC1OC(=O)C(c2ccc(F)cc2)=C1c1ccc2c(c1)NC(=O)CO2 (racemic) is 740

* * *

# tested on: UniProtKB P06401
# test protocol: Displacement of [3H]-Progesterone from human PR expressed in 293 cells after 16 hrs by scintillation counting
reported endpoint: IC50 (nM)
Entry rule: numbers only, all in nM.

| compound | reported endpoint | quantitative readout |
| --- | --- | --- |
| O=C1COc2ccc(C3=C(c4ccc(F)cc4F)C(=O)OC3)cc2N1 | IC50 | 4600 |
| CCN1C(=O)C(c2ccc(F)cc2)=C(c2ccc3c(c2)NC(=O)CO3)C1C (stereo not given) | IC50 | 770 |
| CC1(C)OC(=O)C(c2ccc(F)cc2)=C1c1ccc2c(c1)NC(=O)CO2 | IC50 | 1000 |
| CC1NC(=O)C(c2ccc(F)cc2)=C1c1cc(F)c2c(c1)NC(=O)CO2 (stereo not given) | IC50 | 3200 |
| Cc1cc(F)ccc1C1=C(c2ccc3c(c2)NC(=O)CO3)COC1=O | IC50 | 1800 |

The recorded IC50 for CC1C(c2ccc3c(c2)NC(=O)CO3)=C(c2ccc(F)cc2)C(=O)N1C (stereo not given) is 61

The recorded IC50 for CCC1OC(=O)C(c2ccc(F)cc2)=C1c1ccc2c(c1)NC(=O)CO2 (stereo not given) is 2200

* * *

# tested on: UniProt:P08235
# test protocol: Displacement of [3H]-Aldosterone from human MR expressed in 293 cells after 16 hrs by scintillation counting
# Type: cell-based, HEK293
reported endpoint: log10 of IC50 (log10 of the value in µM)
Friendly reminder: values = log10 of IC50, unit µM.

Consider the worked cases shown below.
| compound | tested on | quantitative readout |
| --- | --- | --- |
| CC1C(c2ccc3c(c2)NC(=O)CO3)=C(c2ccc(F)cc2)C(=O)N1C1CC1 (stereo not drawn) | UniProt:P08235 | -1.17 |
| CC1C(c2ccc3c(c2)NC(=O)CO3)=C(c2ccc(F)cc2)C(=O)N1CCO (stereo not drawn) | UniProt:P08235 | 0.20 |

The recorded log10 of IC50 for CC1C(c2ccc3c(c2)NC(=O)CO3)=C(c2ccc(F)cc2)C(=O)N1C (stereo not drawn) is -0.77

The recorded log10 of IC50 for CCN1C(=O)C(c2ccc(F)cc2)=C(c2ccc3c(c2)NC(=O)CO3)C1C (stereo not drawn) is -1.48

The recorded log10 of IC50 for Cc1cc(C2=C(c3ccc(F)cc3)C(=O)NC2C)cc2c1OCC(=O)N2 (stereo not drawn) is -1.37

The recorded log10 of IC50 for "Cc1cc(F)ccc1C1=C(c2ccc3c(c2)NC(=O)CO3)COC1=O" is -0.12

The recorded log10 of IC50 for CC1(F)OC(=O)C(c2ccc(F)cc2)=C1c1ccc2c(c1)NC(=O)CO2 (stereo not drawn) is -0.26

The recorded log10 of IC50 for CC1NC(=O)C(c2ccc(F)cc2)=C1c1cc(Cl)c2c(c1)NC(=O)CO2 (stereo not drawn) is -1.64

* * *

Overview of recorded IC50 for various compounds
# tested on: UniProtKB P04150
# test protocol: Displacement of [3H]-Dexamethasone human GR expressed in 293 cells after 16 hrs by scintillation counting
Entry rule: numbers only, all in µM.

| compound | IC50 [µM] |
| --- | --- |
| CC1OC(=O)C(c2ccc(F)cc2)=C1c1ccc2c(c1)NC(=O)CO2 (racemic) | 3.8 |
| CC1NC(=O)C(c2ccc(F)cc2)=C1c1cc(F)c2c(c1)NC(=O)CO2 (stereo not given) | 5 |
| CCC1OC(=O)C(c2ccc(F)cc2)=C1c1ccc2c(c1)NC(=O)CO2 (stereo not given) | 2 |

The recorded IC50 for CC1NC(=O)C(c2ccc(F)cc2)=C1c1ccc2c(c1)NC(=O)CO2 (stereo not given) is 9.1

* * *

# tested on: Glucocorticoid receptor (Homo sapiens, UniProt P04150)
# Sequence (P04150 whole entry): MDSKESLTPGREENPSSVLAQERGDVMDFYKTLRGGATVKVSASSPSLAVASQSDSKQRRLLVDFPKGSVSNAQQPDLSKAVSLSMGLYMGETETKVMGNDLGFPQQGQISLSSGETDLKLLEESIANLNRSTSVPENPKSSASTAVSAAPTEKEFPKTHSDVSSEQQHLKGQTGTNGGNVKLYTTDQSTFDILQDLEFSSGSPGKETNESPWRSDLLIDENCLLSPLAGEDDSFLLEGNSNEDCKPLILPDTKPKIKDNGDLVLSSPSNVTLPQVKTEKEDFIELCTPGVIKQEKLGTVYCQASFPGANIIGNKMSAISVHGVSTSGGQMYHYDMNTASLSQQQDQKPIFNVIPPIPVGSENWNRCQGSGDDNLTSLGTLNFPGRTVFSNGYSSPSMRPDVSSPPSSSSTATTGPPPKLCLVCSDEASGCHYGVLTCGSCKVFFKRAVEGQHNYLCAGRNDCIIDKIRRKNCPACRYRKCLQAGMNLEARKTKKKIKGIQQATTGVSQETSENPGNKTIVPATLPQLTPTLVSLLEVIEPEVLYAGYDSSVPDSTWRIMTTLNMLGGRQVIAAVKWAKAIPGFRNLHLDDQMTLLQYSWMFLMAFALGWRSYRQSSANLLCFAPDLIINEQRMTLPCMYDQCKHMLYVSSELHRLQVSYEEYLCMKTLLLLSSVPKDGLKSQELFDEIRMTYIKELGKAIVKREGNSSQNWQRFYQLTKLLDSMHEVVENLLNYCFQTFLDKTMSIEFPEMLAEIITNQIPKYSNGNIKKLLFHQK
# test protocol: Displacement of [3H]-Dexamethasone human GR expressed in 293 cells after 16 hrs by scintillation counting
# Type: cell-based, HEK293
reported endpoint: pIC50
Keep it numeric: pIC50 is minus log10 of the concentration in mol/L.

Consider the worked cases shown below.
| compound | pIC50 |
| --- | --- |
| CCN1C(=O)C(c2ccc(F)cc2)=C(c2ccc3c(c2)NC(=O)CO3)C1C (stereo not given) | 5.80 |
| CC1(C)OC(=O)C(c2ccc(F)cc2)=C1c1ccc2c(c1)NC(=O)CO2 | 5.33 |
| CC1C(c2ccc3c(c2)NC(=O)CO3)=C(c2ccc(F)cc2)C(=O)N1C1CC1 (stereo not given) | 5.66 |
| CC1C(c2ccc3c(c2)NC(=O)CO3)=C(c2ccc(F)cc2)C(=O)N1C (stereo not given) | 5.68 |
| Cc1cc(C2=C(c3ccc(F)cc3)C(=O)NC2C)cc2c1OCC(=O)N2 (stereo not given) | 5.31 |

# next compound below
The recorded pIC50 for CC1NC(=O)C(c2ccc(F)cc2)=C1c1cc(Cl)c2c(c1)NC(=O)CO2 (stereo not given) is 5.96

* * *

# tested on: Mineralocorticoid receptor (Homo sapiens, UniProt P08235)
# Sequence (P08235 whole entry): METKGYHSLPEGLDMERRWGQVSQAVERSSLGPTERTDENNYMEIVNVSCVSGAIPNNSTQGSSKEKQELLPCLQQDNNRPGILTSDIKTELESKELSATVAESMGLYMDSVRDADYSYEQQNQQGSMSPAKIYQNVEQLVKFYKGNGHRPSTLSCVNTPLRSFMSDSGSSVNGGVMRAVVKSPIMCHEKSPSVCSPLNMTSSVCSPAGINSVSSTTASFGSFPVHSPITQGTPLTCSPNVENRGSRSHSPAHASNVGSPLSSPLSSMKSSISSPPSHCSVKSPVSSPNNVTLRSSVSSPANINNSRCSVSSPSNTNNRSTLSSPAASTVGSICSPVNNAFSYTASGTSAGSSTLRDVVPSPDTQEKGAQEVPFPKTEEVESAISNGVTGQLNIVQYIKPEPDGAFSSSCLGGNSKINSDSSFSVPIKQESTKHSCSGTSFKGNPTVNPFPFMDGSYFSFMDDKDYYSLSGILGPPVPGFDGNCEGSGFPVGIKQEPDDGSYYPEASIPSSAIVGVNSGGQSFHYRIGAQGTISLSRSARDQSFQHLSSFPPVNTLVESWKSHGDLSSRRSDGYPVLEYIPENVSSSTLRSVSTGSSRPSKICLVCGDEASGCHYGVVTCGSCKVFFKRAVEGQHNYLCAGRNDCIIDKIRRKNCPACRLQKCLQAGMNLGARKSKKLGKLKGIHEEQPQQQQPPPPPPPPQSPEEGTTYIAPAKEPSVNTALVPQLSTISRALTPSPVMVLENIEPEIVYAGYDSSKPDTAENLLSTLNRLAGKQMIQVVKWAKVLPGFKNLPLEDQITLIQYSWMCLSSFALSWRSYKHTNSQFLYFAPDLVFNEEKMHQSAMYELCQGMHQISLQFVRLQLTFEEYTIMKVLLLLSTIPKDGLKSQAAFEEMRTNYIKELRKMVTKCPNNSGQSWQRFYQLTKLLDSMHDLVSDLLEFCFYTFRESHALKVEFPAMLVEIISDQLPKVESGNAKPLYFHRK
# test protocol: Antagonist activity at MR (unknown origin) expressed in COS1 cells after 1 day by luciferase reporter gene assay
# Format: cell-based, COS-1
reported endpoint: IC50
Numeric answer plus unit only.

The recorded IC50 for Cc1cc(C2=C(c3ccc(F)cc3)C(=O)NC2C)cc2c1OCC(=O)N2 (stereo unspecified) is 83 nM

* * *

Overview of recorded IC50 for various molecules
# tested on: Progesterone receptor (Homo sapiens, UniProt P06401)
# test protocol: Displacement of [3H]-Progesterone from human PR expressed in 293 cells after 16 hrs by scintillation counting

Consider the worked cases shown below.
| molecule | IC50 |
| --- | --- |
| CC1C(c2ccc3c(c2)NC(=O)CO3)=C(c2ccc(F)cc2)C(=O)N1CCO (stereo not drawn) | > 10 µM |
| O=C1COc2ccc(C3=C(c4ccc(F)cc4)C(=O)OC3)cc2N1 | > 10 µM |

The recorded IC50 for Cc1cc(C2=C(c3ccc(F)cc3)C(=O)NC2C)cc2c1OCC(=O)N2 (stereo not drawn) is > 10 µM

* * *

Overview of recorded IC50 for various compounds
# tested on: Mineralocorticoid receptor (Homo sapiens, UniProt P08235)
# test protocol: Displacement of [3H]-Aldosterone from human MR expressed in 293 cells after 16 hrs by scintillation counting
# Assay type: cell-based, HEK293
Numeric answer plus unit only.

| compound | IC50 |
| --- | --- |
| CC1NC(=O)C(c2ccc(F)cc2)=C1c1ccc2c(c1)NC(=O)CO2 (stereo not given) | 94 nM |
| CC1(C)OC(=O)C(c2ccc(F)cc2)=C1c1ccc2c(c1)NC(=O)CO2 | 1200 nM |
| CC1NC(=O)C(c2ccc(F)cc2)=C1c1cc(F)c2c(c1)NC(=O)CO2 (stereo not given) | 92 nM |

The recorded IC50 for "O=C1COc2ccc(C3=C(c4ccc(F)cc4)C(=O)OC3)cc2N1" is 500 nM

The recorded IC50 for CCC1OC(=O)C(c2ccc(F)cc2)=C1c1ccc2c(c1)NC(=O)CO2 (stereo not given) is 1200 nM
